Test system: Candida albicans
Assay: Induction of apoptosis in Candida albicans assessed as necrotic cells measured after 24 hrs by Annexin V-FITC/PI staining based flow cytometry (reference value: 3.37%)
Format: functional
Test Readout: Activity (%)
Reply with just the number (in %).

Measured Activity of C[C@H](C(=O)OC(Cn1ccnc1)c1ccc(F)cc1)c1ccc(-c2ccccc2)c(F)c1 (some centres undefined) : 32.7

Entry C[C@H](C(=O)N(C)CC(O)(Cn1ccnc1)c1ccc(Cl)cc1)c1ccc(-c2ccccc2)c(F)c1 (some centres undefined) — recorded Activity = 34.3

The molecule listed as C[C@H](C(=O)N(C)CC(O)(Cn1ccnc1)c1ccc(Cl)cc1Cl)c1cccc(C(=O)c2ccccc2)c1 (some centres undefined) shows Activity equal to 26

For this molecule ( OC(Cn1cncn1)(Cn1cncn1)c1ccc(F)cc1F ), measured Activity is 13

---

Give measured Activity for each item. Keep answers brief.
Molecular target: Lanosterol 14-alpha demethylase (Candida albicans (strain SC5314 / ATCC MYA-2876) (Yeast))
Sequence (P10613 whole entry): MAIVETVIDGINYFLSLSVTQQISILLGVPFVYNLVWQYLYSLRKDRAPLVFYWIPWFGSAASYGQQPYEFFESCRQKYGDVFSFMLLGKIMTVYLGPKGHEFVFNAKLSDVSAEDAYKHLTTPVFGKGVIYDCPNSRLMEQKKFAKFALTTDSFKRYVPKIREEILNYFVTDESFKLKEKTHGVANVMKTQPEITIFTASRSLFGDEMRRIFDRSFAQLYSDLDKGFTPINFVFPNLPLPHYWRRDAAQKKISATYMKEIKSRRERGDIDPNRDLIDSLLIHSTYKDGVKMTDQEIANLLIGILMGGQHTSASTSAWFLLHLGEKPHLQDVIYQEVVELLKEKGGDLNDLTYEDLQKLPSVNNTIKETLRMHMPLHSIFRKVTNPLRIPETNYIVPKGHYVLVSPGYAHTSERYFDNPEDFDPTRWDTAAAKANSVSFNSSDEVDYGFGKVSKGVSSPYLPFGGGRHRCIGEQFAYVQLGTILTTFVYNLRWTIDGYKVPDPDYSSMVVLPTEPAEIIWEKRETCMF
Test: Inhibition of CYP51 in Candida albicans ATCC SC5314 assessed as eburicol content at 4 ug/ml measured after 48 hrs by GC-MS analysis (reference value: 1.84%)
Parameters: scale not given: the % may be the effect or the level left
Settings: at 4 µg/mL
Numeric answer only, unit % assumed.

Recorded Activity (compound OC(Cn1cncn1)(Cn1cncn1)c1ccc(F)cc1F ): 40.17

Documented Activity of C[C@H](C(=O)N(C)CC(O)(Cn1ccnc1)c1ccc(Cl)cc1)c1ccc(-c2ccccc2)c(F)c1 (some centres undefined) : 43.28

For C[C@H](C(=O)OC(Cn1ccnc1)c1ccc(F)cc1)c1ccc(-c2ccccc2)c(F)c1 (some centres undefined) the compound record lists Activity as 39.58

Measured Activity, C[C@H](C(=O)N(C)CC(O)(Cn1ccnc1)c1ccc(Cl)cc1Cl)c1cccc(C(=O)c2ccccc2)c1 (some centres undefined) : 50.87

---

System: Pichia kudriavzevii
Assay: Antifungal activity against Candida krusei ATCC 6258 assessed as inhibition of fungal growth measured after 72 hrs by CLSI based liquid medium dilution method
Type: functional
Can you tell me MIC50 for the items I'm about to list?
State just the number; it will be interpreted in µg/mL.

MIC50 reported for this compound C[C@H](C(=O)OC(Cn1cnnn1)c1ccc(Cl)cc1)c1cccc(C(=O)c2ccccc2)c1 (stereo partly drawn) : 1

In plain terms, C[C@H](C(=O)OC(Cn1ccnc1)c1ccc(F)cc1)c1cccc(C(=O)c2ccccc2)c1 (stereo partly drawn) has a documented MIC50 of 0.5

The recorded MIC50 for entry C[C@H](C(=O)OC(Cn1cnnn1)c1ccc(Cl)cc1)c1ccc(-c2ccccc2)c(F)c1 (stereo partly drawn) equals 0.25

The reported value for C[C@H](C(=O)N[C@H](Cn1ccnc1)c1ccccc1)c1ccc(-c2ccccc2)c(F)c1 in terms of MIC50 is 0.25

Record summary for C[C@H](C(=O)N(C)CC(O)(Cn1ccnc1)c1ccc(F)cc1)c1cccc(C(=O)c2ccccc2)c1 (stereo partly drawn) : reported MIC50 = 1

The compound identified as COc1ccc2cc([C@H](C)C(=O)OC(Cn3cnnn3)c3ccc(F)cc3)ccc2c1 (stereo partly drawn) registered its MIC50 at 0.5

C[C@H](C(=O)N(C)CC(O)(Cn1ccnc1)c1ccc(Cl)cc1Cl)c1ccc(-c2ccccc2)c(F)c1 (stereo partly drawn) yielded MIC50 of 0.5

For C[C@H](C(=O)OC(Cn1ccnc1)c1ccc(F)cc1)c1ccc(CC2CCCC2=O)cc1 (stereo partly drawn) the compound record lists MIC50 as 1

MIC50 measured on COc1ccc2cc([C@H](C)C(=O)N[C@H](Cn3cncn3)c3ccccc3)ccc2c1 = 0.25

Sample C[C@H](C(=O)N(C)CC(O)(Cn1ccnc1)c1ccc(Cl)cc1)c1cccc(C(=O)c2ccccc2)c1 (stereo partly drawn) ; MIC50 observed: 0.5

Record summary for C[C@H](C(=O)N[C@H](Cn1ccnc1)c1ccccc1)c1ccc(CC2CCCC2=O)cc1 (stereo partly drawn) : reported MIC50 = 0.5

According to the records, this compound C[C@H](C(=O)OC(Cn1cnnn1)c1ccc(F)cc1)c1ccc(CC2CCCC2=O)cc1 (stereo partly drawn) displays MIC50 of 0.5

MIC50 for COc1ccc2cc([C@H](C)C(=O)N(C)CC(O)(Cn3ccnc3)c3ccc(Cl)cc3)ccc2c1 (stereo partly drawn) is 1

For record C[C@H](C(=O)N[C@H](Cn1ccnc1)c1ccccc1)c1cccc(C(=O)c2ccccc2)c1 the listed MIC50 is 1

// sample COc1ccc2cc([C@H](C)C(=O)N[C@H](Cn3ccnc3)c3ccccc3)ccc2c1 , its MIC50 was 0.5

Recorded MIC50 (compound C[C@H](C(=O)N(C)CC(O)(Cn1ccnc1)c1ccc(F)cc1)c1ccc(-c2ccccc2)c(F)c1 (stereo partly drawn) ): 0.25

Quick note, MIC50 for C[C@H](C(=O)N(C)CC(O)(Cn1ccnc1)c1ccc(Cl)cc1Cl)c1cccc(C(=O)c2ccccc2)c1 (stereo partly drawn) landed at 0.125

MIC50 measured on C[C@H](C(=O)N(C)CC(O)(Cn1ccnc1)c1ccc(Cl)cc1)c1ccc(-c2ccccc2)c(F)c1 (stereo partly drawn) = 0.25

meta.source: ChEMBL document CHEMBL5214990
